System: Primary human epidermal keratinocytes, HeKa
experiment-notes: HeKa cytokine release (IL-8) assay
Assay type: cell-based
experimental-parameters: 6 h, read-out: HeKa cytokine release (IL-8) Rel EC50 range
Experimental: Primary human epidermal keratinocytes, HeKa, were seeded (10.000 cells/well) in 96-well plates the day before the assay. […] Plates are centrifuged briefly to spin down cells at 4° C., the supernatant was removed and analysed by Meso Scale Discovery (MSD) 4-spot cytokine assay (Pro-inflammatory II Ultra Sensitive kit, MSD, MD, USA). […] The cytokine level was quantitated on a SECTOR™ Imager using a cytokine-specific Detection Antibody labelled with MSD SULFO-TAG™ reagent. […]
pEC50: −log10 of the molar value.
The reader will find reported pEC50 values listed item by item below.

Consider the following illustrative entries.
compound	pEC50
CC1=C[C@]23C(=O)[C@@H](C=C(CO)[C@@H](O)[C@]2(O)[C@H]1OC(=O)c1ccc(F)cc1F)[C@H]1[C@@H](C[C@H]3C)C1(C)C [Compound 314, Ingenol 3-(2,4-difluoro-benzoate)]	> 7.70
CC1=C[C@]23C(=O)[C@@H](C=C(CO)[C@@H](O)[C@]2(O)[C@H]1OC(=O)c1ccccc1OC(C)C)[C@H]1[C@@H](C[C@H]3C)C1(C)C [Compound 324, Ingenol 3-(2-isopropoxy-benzoate)]	> 7.70
CC1=C[C@]23C(=O)[C@@H](C=C(CO)[C@@H](O)[C@]2(O)[C@H]1OC(=O)C1C(C)(C)C1(C)C)[C@H]1[C@@H](C[C@H]3C)C1(C)C [Compound 344]	> 7.70

Pending compound:
Simply: CC1=C[C@]23C(=O)[C@@H](C=C(CO)[C@@H](O)[C@]2(O)[C@H]1OC(=O)C1CCCC1)[C@H]1[C@@H](C[C@H]3C)C1(C)C [Compound 304, Ingenol 3-(cyclopentanecarboxylate)] , Primary human epidermal keratinocytes, HeKa, pEC50 = 7.00 to 7.70

====

Test system: Primary human epidermal keratinocytes, HeKa
experiment-notes: HeKa cytokine release (IL-8) assay
Assay type: cell-based
experimental-parameters: 6 h, read-out: HeKa cytokine release (IL-8) Rel EC50 range
pEC50: −log10 of the molar value.
# reported pEC50; entries follow

The recorded pEC50 for entry CC(=O)Nc1cccc(C)c1C(=O)O[C@H]1C(C)=C[C@]23C(=O)[C@@H](C=C(CO)[C@@H](O)[C@]12O)[C@H]1[C@@H](C[C@H]3C)C1(C)C equals < 7.00

Record CC1=C[C@]23C(=O)[C@@H](C=C(CO)[C@@H](O)[C@]2(O)[C@H]1OC(=O)c1ccccc1C)[C@H]1[C@@H](C[C@H]3C)C1(C)C [Compound 310, Ingenol 3-(2-methyl-benzoate)] , field pEC50: > 7.70

Per the records, this compound ( CC1=C[C@]23C(=O)[C@@H](C=C(CO)[C@@H](O)[C@]2(O)[C@H]1OC(=O)c1c(C)cc(C)cc1C)[C@H]1[C@@H](C[C@H]3C)C1(C)C [Compound 325, Ingenol 3-(2,4,6-trimethyl-benzoate)] ) has pEC50 equal to > 7.70

Entry CC1=C[C@]23C(=O)[C@@H](C=C(CO)[C@@H](O)[C@]2(O)[C@H]1OC(=O)c1c(N)cccc1F)[C@H]1[C@@H](C[C@H]3C)C1(C)C [Compound 341, Ingenol 3-(2-amino-6-fluoro-benzoate)] ; pEC50 = > 7.70
